SYSTEM UNDER TEST: murine eIF4E (Mus musculus, UniProt P63073)
Sequence (P63073 whole entry): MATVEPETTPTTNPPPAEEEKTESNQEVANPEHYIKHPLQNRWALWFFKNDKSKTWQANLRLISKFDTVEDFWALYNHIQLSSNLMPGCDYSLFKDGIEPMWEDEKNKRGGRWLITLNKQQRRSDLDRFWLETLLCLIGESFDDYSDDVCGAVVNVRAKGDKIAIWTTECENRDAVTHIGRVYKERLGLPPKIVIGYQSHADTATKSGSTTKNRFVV
ASSAY SUMMARY: Pyrene fluorescence intensity competition binding assay for eIF4E
CONDITIONS: 30 °C; calculated from IC50 values
PROPERTY LABEL: pKd
The value called pKd is obtained by taking minus log10 of the concentration in mol/L.

Sample answers from the record:
compound="C#CCn1c(N)nc2c(ncn2C2OC(COP(=O)(O)CP(=O)(O)OP(=O)([O-])OCC3OC(n4c[n+](C)c5c(O)nc(N)nc54)C(O)C3O)C(O)C2O)c1=O (stereo not drawn)" property_label=pKd test_value=6.28
compound="C#CCn1c(N)nc2c(ncn2C2OC(COP(=O)([O-])OP(=O)(O)NP(=O)(O)OCC3OC(n4c[n+](C)c5c(O)nc(N)nc54)C(O)C3O)C(O)C2O)c1=O (stereo not drawn)" property_label=pKd test_value=6.53
compound="C#CCn1c(N)nc2c(ncn2C2OC(COP(=O)([O-])OP(=O)(O)CP(=O)(O)OCC3OC(n4c[n+](C)c5c(O)nc(N)nc54)C(O)C3O)C(O)C2O)c1=O (stereo not drawn)" property_label=pKd test_value=6.26

pKd reading for C#CCn1c(N)nc2c(ncn2C2OC(COP(=O)(O)NP(=O)(O)OP(=O)([O-])OCC3OC(n4c[n+](C)c5c(O)nc(N)nc54)C(O)C3O)C(O)C2O)c1=O (stereo not drawn) : 6.74

pKd reading for Cn1c[n+]([C@@H]2O[C@H](COP(=O)(O)OP(=O)(O)OP(=O)(O)OC[C@H]3O[C@@H](n4cnc5c(=O)[nH]c(N)nc54)[C@H](O)[C@@H]3O)[C@@H](O)[C@H]2O)c2nc(N)[nH]c(=O)c21 [m^7Gp3G, reference compound] : 6.53

pKd reading for C#CCn1c(N)nc2c(ncn2C2OC(COP(=O)(O)OP(=O)([O-])OP(=O)(O)OCC3OC(n4c[n+](C)c5c(O)nc(N)nc54)C(O)C3O)C(O)C2O)c1=O (stereo not drawn) : 6.52
